The measured values listed here are drawn from PubChem BioAssay AID1963836.

System: 857933-349-R-J2-PDC complex spheroid viability
Experiment: Anticancer human tumor 857933-349-R-J2-PDC patient-derived colon adenocarcinoma cell line growth inhibition [POLQ]
Conditions: curve of first compound; second compound 1 µM
Each entry below lists one item and its recorded IC50 value.
The answer is to be given in nM; state only the numeric part.

Worked cases, answers included:
Compound	IC50, nM
COc1cccc(OCCCN)c1-c1cc(Nc2cnc(C#N)cn2)n[nH]1 + Nc1ccc(C#CCN(C(=O)Cc2ncc(C(F)(F)F)cc2C(F)(F)F)c2ccc(F)cc2)nn1	670
CCCS(=O)(=O)Nc1ccc(F)c(C(=O)c2c[nH]c3ncc(-c4ccc(Cl)cc4)cc23)c1F + Cc1cccc(N(C)C(=O)C2C(O)CCN2c2nc(C)cc(C(F)(F)F)c2C#N)c1	6730

In the following, a different compound is considered.
Kindly indicate its recorded IC50. Item: CCc1c2c(nc3ccc(O)cc13)-c1cc3c(c(=O)n1C2)COC(=O)[C@]3(O)CC + Cc1cccc(N(C)C(=O)C2C(O)CCN2c2nc(C)cc(C(F)(F)F)c2C#N)c1
15.6

====

Catalogue of viability, T/C values
Test system: 857933-349-R-J2-PDC complex spheroid viability
Assay: Anticancer human tumor 857933-349-R-J2-PDC cell line growth inhibition [POLQ];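 further: spheroids exposed to compounds for seven days before readout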
Details: second compound 10 µM; first compound 0.316 µM; stronger effect = lower value

Past entries and their recorded results:
> print(dat)
                                   molecule  result
1  CCCS(=O)(=O)Nc1ccc(F)c(C(=O)c2c[nH]c3ncc(-c4ccc(Cl)cc4)cc23)c1F + Cc1cccc(N(C)C(=O)C2C(O)CCN2c2nc(C)cc(C(F)(F)F)c2C#N)c1     97%
2  CNCc1ccc(-c2[nH]c3cc(F)cc4c3c2CCNC4=O)cc1 + Nc1ccc(C#CCN(C(=O)Cc2ncc(C(F)(F)F)cc2C(F)(F)F)c2ccc(F)cc2)nn1   91.2%

Answer with the recorded viability, T/C for the molecule listed here: CCc1c2c(nc3ccc(O)cc13)-c1cc3c(c(=O)n1C2)COC(=O)[C@]3(O)CC + Cc1cccc(N(C)C(=O)C2C(O)CCN2c2nc(C)cc(C(F)(F)F)c2C#N)c1
17.1%

====

# IC50 annotations
Test system: 857933-349-R-J2-PDC complex spheroid viability
Assay: Anticancer human tumor 857933-349-R-J2-PDC cell line growth inhibition [POLQ];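 further: spheroids exposed to compounds for seven days before readout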
Conditions: curve of first compound; second compound 1 µM
Note: unit µM is implicit; provide only the numeric part.

The following compounds have reported results that may help.
Compound	Assayed Target	Quantity Name	Numeric Result
CC1COCCN1c1cc(-c2ccnn2C)c2ccnc(-c3ccn[nH]3)c2n1 (stereo not given) + Cc1cccc(N(C)C(=O)C2C(O)CCN2c2nc(C)cc(C(F)(F)F)c2C#N)c1	857933-349-R-J2-PDC complex spheroid viability	IC50	0.181
COc1cccc(OCCCN)c1-c1cc(Nc2cnc(C#N)cn2)n[nH]1 + COC1C(OC(N)=O)C(O)C(Oc2ccc3c(O)c(NC(=O)c4ccc(O)c(CC=C(C)C)c4)c(=O)oc3c2C)OC1(C)C	857933-349-R-J2-PDC complex spheroid viability	IC50	0.0869
COc1cccc2c1C(=O)c1c(O)c3c(c(O)c1C2=O)CC(O)(C(=O)CO)CC3OC1CC(N)C(O)C(C)O1 (stereo not given) + Cc1cccc(N(C)C(=O)C2C(O)CCN2c2nc(C)cc(C(F)(F)F)c2C#N)c1	857933-349-R-J2-PDC complex spheroid viability	IC50	0.196
O=c1[nH]cc(F)c(=O)[nH]1 + Nc1ccc(C#CCN(C(=O)Cc2ncc(C(F)(F)F)cc2C(F)(F)F)c2ccc(F)cc2)nn1	857933-349-R-J2-PDC complex spheroid viability	IC50	2.28
CC1COCCN1c1cc(C2(S(C)(=N)=O)CC2)nc(-c2ccnc3[nH]ccc23)n1 (stereo not given) + Cc1cccc(N(C)C(=O)C2C(O)CCN2c2nc(C)cc(C(F)(F)F)c2C#N)c1	857933-349-R-J2-PDC complex spheroid viability	IC50	4.38

Please supply the value of reported IC50 for the item CC1COCCN1c1cc(C2(S(C)(=N)=O)CC2)nc(-c2ccnc3[nH]ccc23)n1 (stereo not given) + COC1C(OC(N)=O)C(O)C(Oc2ccc3c(O)c(NC(=O)c4ccc(O)c(CC=C(C)C)c4)c(=O)oc3c2C)OC1(C)C
4.46

Determine from records and report IC50 for COc1cc(C2c3cc4c(cc3C(OC3OC5COC(C)OC5C(O)C3O)C3COC(=O)C23)OCO4)cc(OC)c1O (stereo not given) + COC1C(OC(N)=O)C(O)C(Oc2ccc3c(O)c(NC(=O)c4ccc(O)c(CC=C(C)C)c4)c(=O)oc3c2C)OC1(C)C
0.453

Retrieve IC50 measured for CCCS(=O)(=O)Nc1ccc(F)c(C(=O)c2c[nH]c3ncc(-c4ccc(Cl)cc4)cc23)c1F + Nc1ccc(C#CCN(C(=O)Cc2ncc(C(F)(F)F)cc2C(F)(F)F)c2ccc(F)cc2)nn1 and print it.
6.43

Provide IC50 value for the following compound: CC1COCCN1c1cc(C2(S(C)(=N)=O)CC2)nc(-c2ccnc3[nH]ccc23)n1 (stereo not given) + Nc1ccc(C#CCN(C(=O)Cc2ncc(C(F)(F)F)cc2C(F)(F)F)c2ccc(F)cc2)nn1
6.44

Name the recorded IC50 of the item CCc1c2c(nc3ccc(O)cc13)-c1cc3c(c(=O)n1C2)COC(=O)[C@]3(O)CC + COC1C(OC(N)=O)C(O)C(Oc2ccc3c(O)c(NC(=O)c4ccc(O)c(CC=C(C)C)c4)c(=O)oc3c2C)OC1(C)C in your answer.
0.0125

Given CC[C@@]1(O)C(=O)OCc2c1cc1n(c2=O)Cc2cc3c(CN(C)C)c(O)ccc3nc2-1 + Nc1ccc(C#CCN(C(=O)Cc2ncc(C(F)(F)F)cc2C(F)(F)F)c2ccc(F)cc2)nn1 , respond with its IC50.
0.0869

Given CC[C@@]1(O)C(=O)OCc2c1cc1n(c2=O)Cc2cc3c(CN(C)C)c(O)ccc3nc2-1 + Cc1cccc(N(C)C(=O)C2C(O)CCN2c2nc(C)cc(C(F)(F)F)c2C#N)c1 , respond with its IC50.
0.0722

====

Tested on: 857933-349-R-J2-PDC complex spheroid viability
Experiment: Anticancer human tumor 857933-349-R-J2-PDC cell line growth inhibition [POLQ];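 further: spheroids exposed to compounds for seven days before readout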
Details: second compound 1 µM; first compound 0.01 µM; stronger effect = lower value
Quantity Name: viability, T/C (%)
Please give a number only; it is taken to be in %.

Solved cases below.
Compound	Assayed Target	viability, T/C, %
CCc1c2c(nc3ccc(O)cc13)-c1cc3c(c(=O)n1C2)COC(=O)[C@]3(O)CC + Nc1ccc(C#CCN(C(=O)Cc2ncc(C(F)(F)F)cc2C(F)(F)F)c2ccc(F)cc2)nn1	857933-349-R-J2-PDC complex spheroid viability	58.1
CCc1c2c(nc3ccc(O)cc13)-c1cc3c(c(=O)n1C2)COC(=O)[C@]3(O)CC + Cc1cccc(N(C)C(=O)C2C(O)CCN2c2nc(C)cc(C(F)(F)F)c2C#N)c1	857933-349-R-J2-PDC complex spheroid viability	62.5
CC[C@@]1(O)C(=O)OCc2c1cc1n(c2=O)Cc2cc3c(CN(C)C)c(O)ccc3nc2-1 + Nc1ccc(C#CCN(C(=O)Cc2ncc(C(F)(F)F)cc2C(F)(F)F)c2ccc(F)cc2)nn1	857933-349-R-J2-PDC complex spheroid viability	94.4
C=CCn1c(=O)c2cnc(Nc3ccc(N4CCN(C)CC4)cc3)nc2n1-c1cccc(C(C)(C)O)n1 + Nc1ccc(C#CCN(C(=O)Cc2ncc(C(F)(F)F)cc2C(F)(F)F)c2ccc(F)cc2)nn1	857933-349-R-J2-PDC complex spheroid viability	93.6

--- query ---
// Input: COc1cccc(OCCCN)c1-c1cc(Nc2cnc(C#N)cn2)n[nH]1 + Cc1cccc(N(C)C(=O)C2C(O)CCN2c2nc(C)cc(C(F)(F)F)c2C#N)c1 . Output its viability, T/C only.
96.3

====

Tested on: 857933-349-R-J2-PDC complex spheroid viability
Assay: Anticancer human tumor 857933-349-R-J2-PDC cell line growth inhibition [POLQ];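 further: spheroids exposed to compounds for seven days before readout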
Conditions: second compound 10 µM; first compound 0.316 µM; stronger effect = lower value
Below, each entry is listed with its recorded viability, T/C.
Your answer should be a plain number; it is taken to be in %.

Use the examples below as a reference point.
Compound	Assayed Target	viability, T/C, %
CC1COCCN1c1cc(C2(S(C)(=N)=O)CC2)nc(-c2ccnc3[nH]ccc23)n1 (stereo not drawn) + COC1C(OC(N)=O)C(O)C(Oc2ccc3c(O)c(NC(=O)c4ccc(O)c(CC=C(C)C)c4)c(=O)oc3c2C)OC1(C)C	857933-349-R-J2-PDC complex spheroid viability	85.7
CNCc1ccc(-c2[nH]c3cc(F)cc4c3c2CCNC4=O)cc1 + Cc1cccc(N(C)C(=O)C2C(O)CCN2c2nc(C)cc(C(F)(F)F)c2C#N)c1	857933-349-R-J2-PDC complex spheroid viability	117

Now look at this one.
Please indicate recorded viability, T/C of CCc1c2c(nc3ccc(O)cc13)-c1cc3c(c(=O)n1C2)COC(=O)[C@]3(O)CC + Nc1ccc(C#CCN(C(=O)Cc2ncc(C(F)(F)F)cc2C(F)(F)F)c2ccc(F)cc2)nn1 measured with 857933-349-R-J2-PDC complex spheroid viability.
12.7
